Tested on: Mus musculus
Assay: Anticonvulsant activity in intraperitoneally dosed Swiss albino mouse assessed as reduction in clonic seizures after 4 hrs by subcutaneous pentylenetetrazole seizure test
Assay type: functional
Readings of MED50 for the listed molecules
Your answer is read as mg/kg, so omit the unit and give the number.

Example entries and their recorded answers appear below.
CCOC(=O)Nc1ccc(N2CCN(c3ccc(OC)cc3)CC2)cc1 : 100
CCCC(CCC)C(=O)O [VALPROIC ACID] : 300

Asked: Item CCOC(=O)Nc1ccc(N2CCN(C(c3ccc(F)cc3)c3ccc(F)cc3)CC2)cc1 has what recorded MED50?
Given back: 100

----------
Tested on: Mus musculus
Assay: Anticonvulsant activity in intraperitoneally dosed Swiss albino mouse assessed as reduction in electrical stimulus-induced seizures after 4 hrs by maximal electroshock seizure test
Type: functional
parameter-measured: MED50 (mg/kg)
Your answer is read as mg/kg, so omit the unit and give the number.

CCOC(=O)Nc1ccc(N2CCN(c3ccc(Cl)cc3)CC2)cc1 : 300
CCOC(=O)Nc1ccc(N2CCN(c3ccncc3)CC2)cc1 : 300
CCOC(=O)Nc1ccc(N2CCN(c3ncccn3)CC2)cc1 : 300
CCOC(=O)Nc1ccc(N2CCN(C(c3ccc(F)cc3)c3ccc(F)cc3)CC2)cc1 : 300
NC(=O)N1c2ccccc2C=Cc2ccccc21 [CARBAMAZEPINE] : 100

Asked: Item O=C1NC(=O)C(c2ccccc2)(c2ccccc2)N1 has what recorded MED50?
Given back: 30
